# System: Principal Bile Acids in Colon
# assayProtocol: Bile acid composition of colon after oral administration (GC-MS)
# Type: in vivo, Sprague-Dawley rats
# protocolConditions: oral gavage 250 mg/day, 4 days; mean ± SEM
resultType: Lithocholic acid percent of colonic bile acids

Some compounds with known Lithocholic acid percent of colonic bile acids results, for comparison:
C[C@H](CCC(=O)O)[C@H]1CC[C@H]2[C@@H]3[C@@H](O)C[C@@H]4C[C@H](OS(=O)(=O)O)CC[C@]4(C)[C@H]3CC[C@]12C [UDCA-3S, ursodeoxycholic acid 3-sulfate] ... 18.4%
C[C@H](CCC(=O)O)[C@H]1CC[C@H]2[C@@H]3[C@@H](OS(=O)(=O)O)C[C@@H]4C[C@H](O)CC[C@]4(C)[C@H]3CC[C@]12C [UDCA-7S, ursodeoxycholic acid 7-sulfate] ... 1.3%
C[C@H](CCC(=O)O)[C@H]1CC[C@H]2[C@@H]3[C@@H](O)C[C@@H]4C[C@H](O)CC[C@]4(C)[C@H]3CC[C@]12C [UDCA, reference compound] ... 32.0%

Next, consider the following compound.
Value of measured Lithocholic acid percent of colonic bile acids for the entry C[C@H](CCC(=O)O)[C@H]1CC[C@H]2[C@@H]3[C@@H](OS(=O)(=O)O)C[C@@H]4C[C@H](OS(=O)(=O)O)CC[C@]4(C)[C@H]3CC[C@]12C [UDCA-DS, ursodeoxycholic acid 3,7-disulfate] : 1.8%

----------
Reported Δ^22-UDCA percent of colonic bile acids is given for each of the following compounds.
# System: Principal Bile Acids in Colon
# assayProtocol: Bile acid composition of colon after oral administration (GC-MS)
# Type: in vivo, Sprague-Dawley rats
# protocolConditions: oral gavage 250 mg/day, 4 days; mean ± SEM
The response must be a number in % with no trailing unit.

Some compounds with known Δ^22-UDCA percent of colonic bile acids results, for comparison:
C[C@H](CCC(=O)O)[C@H]1CC[C@H]2[C@@H]3[C@@H](OS(=O)(=O)O)C[C@@H]4C[C@H](O)CC[C@]4(C)[C@H]3CC[C@]12C [UDCA-7S, ursodeoxycholic acid 7-sulfate] ... 0
C[C@H](CCC(=O)O)[C@H]1CC[C@H]2[C@@H]3[C@@H](O)C[C@@H]4C[C@H](O)CC[C@]4(C)[C@H]3CC[C@]12C [UDCA, reference compound] ... 0.4
C[C@H](CCC(=O)O)[C@H]1CC[C@H]2[C@@H]3[C@@H](OS(=O)(=O)O)C[C@@H]4C[C@H](OS(=O)(=O)O)CC[C@]4(C)[C@H]3CC[C@]12C [UDCA-DS, ursodeoxycholic acid 3,7-disulfate] ... 0

Next, consider the following compound.
Value of measured Δ^22-UDCA percent of colonic bile acids for the entry C[C@H](CCC(=O)O)[C@H]1CC[C@H]2[C@@H]3[C@@H](O)C[C@@H]4C[C@H](OS(=O)(=O)O)CC[C@]4(C)[C@H]3CC[C@]12C [UDCA-3S, ursodeoxycholic acid 3-sulfate] : 0.2

----------
# Tested on: Principal Bile Acids in Colon
# assayProtocol: Bile acid composition of colon after oral administration (GC-MS)
# Assay type: in vivo, Sprague-Dawley rats
# protocolConditions: oral gavage 250 mg/day, 4 days; mean ± SEM
resultType: Deoxycholic acid percent of colonic bile acids

Some molecules with known Deoxycholic acid percent of colonic bile acids results, for comparison:
C[C@H](CCC(=O)O)[C@H]1CC[C@H]2[C@@H]3[C@@H](O)C[C@@H]4C[C@H](O)CC[C@]4(C)[C@H]3CC[C@]12C [UDCA, reference compound] ... 10.4%
C[C@H](CCC(=O)O)[C@H]1CC[C@H]2[C@@H]3[C@@H](OS(=O)(=O)O)C[C@@H]4C[C@H](O)CC[C@]4(C)[C@H]3CC[C@]12C [UDCA-7S, ursodeoxycholic acid 7-sulfate] ... 11.4%
C[C@H](CCC(=O)O)[C@H]1CC[C@H]2[C@@H]3[C@@H](O)C[C@@H]4C[C@H](OS(=O)(=O)O)CC[C@]4(C)[C@H]3CC[C@]12C [UDCA-3S, ursodeoxycholic acid 3-sulfate] ... 17.4%

Value of measured Deoxycholic acid percent of colonic bile acids for the entry C[C@H](CCC(=O)O)[C@H]1CC[C@H]2[C@@H]3[C@@H](OS(=O)(=O)O)C[C@@H]4C[C@H](OS(=O)(=O)O)CC[C@]4(C)[C@H]3CC[C@]12C [UDCA-DS, ursodeoxycholic acid 3,7-disulfate] : 27.2%
